For each of the compounds below, state its MOR % Stimulation, [35S]GTPγS.
Molecular target: rat MOR (Rattus norvegicus)
Construct: expressed in transfected cells; host or cells: C6 rat glioma cells, stably transfected; membranes
Sequence (P33535 whole entry): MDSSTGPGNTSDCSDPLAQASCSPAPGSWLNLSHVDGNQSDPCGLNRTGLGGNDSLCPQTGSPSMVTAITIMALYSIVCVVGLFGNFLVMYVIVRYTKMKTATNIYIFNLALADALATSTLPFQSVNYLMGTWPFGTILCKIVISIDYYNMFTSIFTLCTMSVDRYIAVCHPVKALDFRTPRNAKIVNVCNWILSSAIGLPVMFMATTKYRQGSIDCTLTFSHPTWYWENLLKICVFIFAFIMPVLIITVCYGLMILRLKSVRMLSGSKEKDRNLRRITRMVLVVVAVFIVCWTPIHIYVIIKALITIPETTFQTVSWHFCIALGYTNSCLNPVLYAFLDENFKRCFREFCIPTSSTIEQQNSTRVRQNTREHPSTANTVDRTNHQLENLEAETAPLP
Experiment: Stimulation of [35S]GTPγS binding, C6 glioma cell membranes expressing MOR
Type: biochemical
Details: compared to standard maximal DAMGO
Enter your answer as a number in %; do not include the unit.

Request: Output reported MOR % Stimulation, [35S]GTPγS of the compound O=C1CCC2C3Cc4ccc(O)c5c4[C@@]2(CCN3CCc2cccc(F)c2)[C@H]1O5 (stereo partly shown) on rat MOR (Rattus norvegicus).
Response: 56.8

Request: Output reported MOR % Stimulation, [35S]GTPγS of the compound O=C1CCC2C3Cc4ccc(O)c5c4[C@@]2(CCN3CCc2ccc(Cl)cc2)[C@H]1O5 (stereo partly shown) on rat MOR (Rattus norvegicus).
Response: 39.0

Request: Output reported MOR % Stimulation, [35S]GTPγS of the compound Cc1ccc(CCN2CC[C@]34c5c6ccc(O)c5O[C@H]3C(=O)CCC4C2C6)cc1 (stereo partly shown) on rat MOR (Rattus norvegicus).
Response: 55.6

Request: Output reported MOR % Stimulation, [35S]GTPγS of the compound O=C1CCC2C3Cc4ccc(O)c5c4[C@@]2(CCN3CCc2ccc(F)cc2)[C@H]1O5 (stereo partly shown) on rat MOR (Rattus norvegicus).
Response: 42.6

Request: Output reported MOR % Stimulation, [35S]GTPγS of the compound O=C1CCC2C3Cc4ccc(O)c5c4[C@@]2(CCN3CCc2ccccc2F)[C@H]1O5 (stereo partly shown) on rat MOR (Rattus norvegicus).
Response: 100

Request: Output reported MOR % Stimulation, [35S]GTPγS of the compound O=C1CCC2C3Cc4ccc(O)c5c4[C@@]2(CCN3CCc2ccc(C(F)(F)F)cc2)[C@H]1O5 (stereo partly shown) on rat MOR (Rattus norvegicus).
Response: 72.2

Request: Output reported MOR % Stimulation, [35S]GTPγS of the compound O=C1CCC2C3Cc4ccc(O)c5c4[C@@]2(CCN3CCc2ccc([N+](=O)[O-])cc2)[C@H]1O5 (stereo partly shown) on rat MOR (Rattus norvegicus).
Response: 26.6
